Each entry below carries its recorded pIC50.
# Tested on: Pseudomonas aeruginosa
# Assay Summary: Antimicrobial activity against Pseudomonas aeruginosa PA14 assessed as inhibition of biofilm formation after 24 hrs by spectrophotometry
# Assay type: functional, organism-based
# Condition Summary: PA14, 24 h
pIC50: −log10 of the molar value.

These solved cases illustrate the format of a correct answer.
Structure String | pIC50
O[C@@]1(c2ccccc2)C[n+]2cccnc2N1C1CCC1 | < 3.40
CCN1c2nccc[n+]2C[C@@]1(O)c1ccc([N+](=O)[O-])cc1 | < 3.10

With those in mind, consider the next compound.
Name the recorded pIC50 for CCCCN1c2nccc[n+]2C[C@@]1(O)c1ccccc1 .
< 3.40

====

# System: Salmonella typhimurium
# Assay Summary: Antimicrobial activity against Salmonella Typhimurium ATCC 14028 assessed as inhibition of biofilm formation after 24 hrs by spectrophotometry
# Format: functional, organism-based, Salmonella enterica subsp. enterica serovar Typhimurium
# Condition Summary: Salmonella enterica, ATCC 14028, 24 h
pIC50: −log10 of the molar value.
Observable: pIC50

Structure String | pIC50
CC(C)Nc1ncc(-c2ccccc2)[nH]1 | < 3.10
CCCCCNc1ncc(-c2ccc(Cl)cc2)[nH]1 | < 3.40
COc1cccc(CNc2ncc(-c3ccc(Cl)c(Cl)c3)[nH]2)c1 | < 3.10
CCCCCCCCCNc1ncc(-c2ccc(Cl)cc2)[nH]1 | < 3.10

I'd like to know its pIC50. The compound in question is CCCCCCCCNc1ncc(-c2ccc(F)cc2)[nH]1
< 3.40

So what's the measured pIC50 for this one? CN1c2nccc[n+]2C[C@@]1(O)c1ccccc1
< 3.10

Dear colleague, I am looking for the recorded pIC50 of the following compound: O=[N+]([O-])c1ccc([C@]2(O)C[n+]3cccnc3N2C2CCCCCCCCCCC2)cc1
> 5.20

Entry COc1cccc(CNc2ncc(-c3ccc(-c4ccc(-c5ccccc5)cc4)cc3)[nH]2)c1 has what pIC50?
< 3.10

====

# Tested on: Salmonella typhimurium
# Assay Summary: Antimicrobial activity against Salmonella Typhimurium ATCC 14028 assessed as inhibition of biofilm formation after 24 hrs by spectrophotometry
# Type: functional, organism-based, Salmonella enterica subsp. enterica serovar Typhimurium
# Condition Summary: Salmonella enterica, ATCC 14028, 24 h
Observable: pIC50
Would you please state pIC50, meaning minus log10 of the concentration in mol/L, as a bare number?

Need pIC50 of CCCCCCCCN1c2nccc[n+]2C[C@@]1(O)c1ccc(Cl)c(Cl)c1 , thanks.
5.15

Query: pIC50; subject: O=[N+]([O-])c1ccc([C@]2(O)C[n+]3cccnc3N2C23CC4CC(CC(C4)C2)C3)cc1
5.06

====

# System: Salmonella typhimurium
# Assay Summary: Antimicrobial activity against Salmonella Typhimurium ATCC 14028 assessed as inhibition of planktonic cell growth at 40 uM after 24 hrs by […]
# Format: functional, organism-based
# Condition Summary: Salmonella enterica subsp. enterica serovar Typhimurium
Active and inactive are the calls of the source. The rule behind the calls is not given here.
Allowed answers: y for active, n for inactive

Past entries and their recorded results:
Structure String | Assigned Label
CCCCCCCCCCCN1c2nccc[n+]2C[C@@]1(O)c1ccccc1.[Br-] | y
CCCCCN1c2nccc[n+]2C[C@@]1(O)c1ccc(Br)cc1 | n

Could you check what this test reported for O[C@@]1(c2ccc(F)cc2)C[n+]2cccnc2N1Cc1ccc2c(c1)OCO2 ?
n

Dear all, I need the recorded test outcome for O=[N+]([O-])c1ccc(-c2cnc(NC3CCCCC3)[nH]2)cc1 , thank you.
n

For CC(C)CNc1ncc(-c2ccc(Br)cc2)[nH]1 , what call appears in the results of this test?
y

Query: recorded result category for Clc1ccc(-c2cnc(NC3CCCC3)[nH]2)cc1 in this test
n

Lab log entry: Nc1ncc(-c2ccc([N+](=O)[O-])cc2)[nH]1 — outcome as called in the assay?
y

Check the results log: what was the call for CCCCCN1c2nccc[n+]2C[C@@]1(O)c1ccc(Cl)cc1 ?
n

What did the test return for CCCCNc1ncc(-c2ccccc2)[nH]1 ?
n

====

# System: Pseudomonas aeruginosa
# Assay Summary: Antimicrobial activity against Pseudomonas aeruginosa PA14 assessed as inhibition of biofilm formation after 24 hrs by spectrophotometry
# Assay type: functional, organism-based
# Condition Summary: PA14, 24 h
pIC50: −log10 of the molar value.
Below: a set of entries, each annotated with reported pIC50.

Answered cases to consult:
Structure String | Reading
CCCCCCCCCCCN1c2nccc[n+]2C[C@@]1(O)c1ccc(Cl)cc1.[Br-] | < 3.10
CCCCCCCCNc1ncc(-c2cccc(Br)c2)[nH]1 | < 3.10
COc1cccc(CNc2ncc(-c3ccc(-c4ccc(-c5ccccc5)cc4)cc3)[nH]2)c1 | < 3.10

Kindly review the next compound as well.
Look up pIC50 for this compound: CN1c2nccc[n+]2C[C@@]1(O)c1ccccc1
< 3.40

====

# Tested on: Pseudomonas aeruginosa
# Assay Summary: Antimicrobial activity against Pseudomonas aeruginosa PA14 assessed as inhibition of biofilm formation after 24 hrs by spectrophotometry
# Type: functional, organism-based
# Condition Summary: PA14, 24 h
pIC50: −log10 of the molar value.
Classification field: satisfied = pIC50 at or over 4; not satisfied = pIC50 under 4.

Structure String | Assigned Label
COc1ccc(CNc2ncc(-c3ccc([N+](=O)[O-])cc3)[nH]2)cc1 | not satisfied
CCCCCCCCNc1ncc(-c2ccc(OC)cc2)[nH]1 | not satisfied
CCCCNc1ncc(-c2ccc([N+](=O)[O-])cc2)[nH]1 | not satisfied
CCCCCCCCCCCCN1c2nccc[n+]2C[C@@]1(O)c1ccc(Cl)cc1 | not satisfied
CCCCCCCCNc1ncc(-c2ccc(F)cc2)[nH]1 | satisfied

Hello, I need to know if CNc1ncc(-c2ccc([N+](=O)[O-])cc2)[nH]1 has measured pIC50 not below 4. Thanks!
satisfied

For this compound, is measured pIC50 4 or higher? CC(C)CN1c2nccc[n+]2C[C@@]1(O)c1ccc(Br)cc1
satisfied

I'd appreciate it if you could say whether CN1c2nccc[n+]2C[C@@]1(O)c1ccc([N+](=O)[O-])cc1 has pIC50 at least equal to 4.
not satisfied

Has O[C@@]1(c2ccc(Cl)cc2)C[n+]2cccnc2N1C1CCCC1 a recorded pIC50 greater than or equal to 4?
satisfied

Form field: pIC50 at least 4? Entry: CCCCCCCCNc1ncc(-c2ccc(Cl)c(Cl)c2)[nH]1
not satisfied

Does the compound CCCCCCCCNc1ncc(-c2ccc([N+](=O)[O-])cc2)[nH]1 have recorded pIC50 that is 4 or more?
satisfied

====

# Test system: Pseudomonas aeruginosa
# Assay Summary: Antimicrobial activity against Pseudomonas aeruginosa PA14 assessed as inhibition of biofilm formation after 24 hrs by spectrophotometry
# Type: functional, organism-based
# Condition Summary: PA14, 24 h
// assign y if IC50 falls strictly below 20 µM, else n (ties count as n)

Structure String | Assigned Label
CCCCCCCCNc1ncc(-c2ccc(S(C)(=O)=O)cc2)[nH]1 | y
CCCCCCCCCCCCCCN1c2nccc[n+]2C[C@@]1(O)c1ccc(Cl)cc1 | n
CC(C)CNc1ncc(-c2ccccc2)[nH]1 | y
c1ccc2c(-c3cnc(NCc4ccc5c(c4)OCO5)[nH]3)cccc2c1 | y

Turning now to a further compound:
Dear reviewer, please state whether CCCCCCCCCCCCCCN1c2nccc[n+]2C[C@@]1(O)c1ccccc1.[Br-] has IC50 strictly beneath 20 µM.
n

====

# Test system: Pseudomonas aeruginosa
# Assay Summary: Antimicrobial activity against Pseudomonas aeruginosa PA14 assessed as inhibition of biofilm formation after 24 hrs by spectrophotometry
# Type: functional, organism-based
# Condition Summary: PA14, 24 h
Observable: pIC50
Scale: pIC50 equals -log10([C]), with [C] in mol/L.

Structure String | Reading
CCNc1ncc(-c2ccc([N+](=O)[O-])cc2)[nH]1 | 3.98

I am curious: what pIC50 value has been reported for CCCCCCN1c2nccc[n+]2C[C@@]1(O)c1ccccc1 ?
3.39

Tell me the measured pIC50 of CCCCN1c2nccc[n+]2C[C@@]1(O)c1ccc(Cl)cc1 , please.
4.60

====

# Test system: Pseudomonas aeruginosa
# Assay Summary: Antimicrobial activity against Pseudomonas aeruginosa PA14 assessed as inhibition of biofilm formation after 24 hrs by spectrophotometry
# Type: functional, organism-based
# Condition Summary: PA14, 24 h
Observable: IC50 (µM)
Could you give me the number in µM? Just the number is fine.

Field: example entries. Status: answers known.
Structure String | Measure Unit | Reading
CCCCCN1c2nccc[n+]2C[C@@]1(O)c1ccccc1 | µM | 565
CCCCCN1c2nccc[n+]2C[C@@]1(O)c1ccc(Br)cc1 | µM | 4.2
CCCCCCCN1c2nccc[n+]2C[C@@]1(O)c1ccccc1 | µM | 25.5
O=[N+]([O-])c1ccc([C@]2(O)C[n+]3cccnc3N2C23CC4CC(CC(C4)C2)C3)cc1 | µM | 14.4
O[C@@]1(c2ccc(Cl)cc2)C[n+]2cccnc2N1C1CCCCCCC1 | µM | 22.7

Which IC50 value is on record for CCCCN1c2nccc[n+]2C[C@@]1(O)c1ccc([N+](=O)[O-])cc1 ?
145

Source: ChEMBL document CHEMBL1811868
